Below are IC50 values measured for human LXRβ (Homo sapiens, UniProt P55055).
Quick reminder: number only, in µM, skip the unit.

Examples with answers:
Query: Looking for the measured IC50 of CCS(=O)(=O)c1cc(F)cc(Oc2ccc(-n3cnc4c(C(F)(F)F)cccc43)c(C)c2)c1 [Example 97] , can you help?
Reply: 1.11

Query: Same question for Cc1cc(Oc2ccc(S(C)(=O)=O)cc2)ccc1-n1cnc2c(C(F)(F)F)cccc21 [Example 98] please.
Reply: 0.581

Query: Can you check Cc1nc2c(C(F)(F)F)cccc2n1-c1ccc(Oc2cc(F)cc(S(C)(=O)=O)c2)cc1 [Example 66] next?
Reply: 0.051

Query: Likewise for Cc1cc(Oc2cc(F)cc(S(C)(=O)=O)c2)ccc1-n1cnc2c(C(F)(F)F)cccc21 [Example 96] ?
Reply: 2.62

Query: Input CCc1nc2c(C(F)(F)F)cccc2n1-c1ccc(Oc2ccc(C#N)c(S(C)(=O)=O)c2)cc1 [Example 88]
Reply: 1.92

Further cases:
Query: Given the entry Cc1nc2c(Cl)cccc2n1-c1cccc(Oc2ccc(S(C)(=O)=O)cc2)c1 [Example 48] , report its measured IC50.
Reply: 0.006

Query: Ok, now COc1ccc(-n2c(C(F)(F)c3ccccc3)nc3c(C(F)(F)F)cccc32)cc1 [Example 74]
Reply: 0.032

Query: Would you kindly repeat that for Cc1nc2c(C(F)(F)F)cccc2n1-c1ccc(Oc2cccc(S(C)(=O)=O)c2)cc1 [Example 64] ?
Reply: 0.0017

Query: Now this one: Cc1nc2c(C(F)(F)F)cccc2n1-c1cccc(Oc2ccc(S(C)(=O)=O)cc2)c1 [Example 14]
Reply: 0.435

Query: # repeat for Cc1nc2c(C(F)(F)F)cccc2n1-c1cccc(Oc2cccc(S(=O)(=O)CCCS(C)(=O)=O)c2)c1 [Example 76]
Reply: 0.02

---

Item-by-item account of log10 of IC50
Target protein (sequence): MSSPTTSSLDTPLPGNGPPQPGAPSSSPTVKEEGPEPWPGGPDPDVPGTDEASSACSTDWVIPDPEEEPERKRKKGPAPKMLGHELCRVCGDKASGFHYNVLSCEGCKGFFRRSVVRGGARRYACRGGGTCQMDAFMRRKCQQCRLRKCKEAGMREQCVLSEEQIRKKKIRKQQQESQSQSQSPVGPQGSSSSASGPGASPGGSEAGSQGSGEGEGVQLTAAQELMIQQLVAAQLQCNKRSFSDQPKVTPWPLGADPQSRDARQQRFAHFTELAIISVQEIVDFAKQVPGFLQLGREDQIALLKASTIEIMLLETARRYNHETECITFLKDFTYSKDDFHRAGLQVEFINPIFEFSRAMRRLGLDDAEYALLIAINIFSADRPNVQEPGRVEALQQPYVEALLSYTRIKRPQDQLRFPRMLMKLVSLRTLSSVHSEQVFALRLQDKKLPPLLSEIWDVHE
Remember, log10 of IC50, in nM.

Record excerpt, results attached:
Query: Return reported log10 of IC50; argument: "CCS(=O)(=O)c1cccc(Oc2cccc(-n3c(C(F)(F)F)nc4c(C(F)(F)F)cccc43)c2)c1"
Reply: 2.30

Query: Follow-up entry: "Cc1nc2c(C(F)(F)F)cccc2n1-c1ccc(Oc2cc(F)cc(S(C)(=O)=O)c2)cc1Cl"
Reply: 2.37

Query: Queued: "Cc1nc2c(Cl)cccc2n1-c1cccc(Oc2ccccc2S(C)(=O)=O)c1"
Reply: 2.23

Query: Continue with "CCS(=O)(=O)c1cccc(Oc2ccc(-n3cnc4c(C(F)(F)F)cccc43)c(Cl)c2)c1"
Reply: 2.55

Next:
Query: Would you kindly share the measured log10 of IC50 for "CCc1nc2c(C(F)(F)F)cccc2n1-c1ccc(Oc2cc(F)cc(S(C)(=O)=O)c2)cc1" ?
Reply: 1.30

FYI, the data here is from patent US20110034526A1.
